System: OVCAR-3
PROTOCOL SUMMARY: NCI tumour cell line growth inhibition, 48 h
The source made the active and inactive calls. Cut-off read from the data, not from the text of the source: active = GI50 up to about 1.1 µM and inactive = higher.
Pick one: active, inactive

Solved entries (count: 3):
- MOLECULE: "O=C1C2CN(Cc3ccccc3)CC1CN(CC1CC1)C2"
  ANSWER LABEL: "inactive"
- MOLECULE: "COc1ccc(C2C3CCc4ccccc4C3=NN2S(=O)(=O)c2ccc(/C=C/C(=O)O)cc2)cc1 (stereo not given)"
  ANSWER LABEL: "inactive"
- MOLECULE: "CC(=O)OC12c3ccccc3C(c3ccccc31)C1C(=O)N(Nc3ccccc3)C(=O)C12 (stereo not given)"
  ANSWER LABEL: "inactive"

Which result was noted for this molecule in the test: C=C(Cl)/C(=C/Cl)CCC(Br)C(C)(C)Cl.C=C(Cl)/C(=C\Cl)CCC(Br)C(C)(C)Cl (stereo not given)
inactive

Hi, do you know how C=C[C@]1(O[Si](C)(C)C)C[C@@]2(C(=O)OCC)C(O)C(=O)N3CCc4cc(OC)c(OC)cc4[C@]312 (stereo not given in full) came out in this test?
inactive

So what was the verdict on OC(c1cccs1)c1cc2ccccc2s1 (stereo not given) in this test?
inactive

What was the test verdict on ClCCNCCNCCCl.ClCCNCCNCCCl.[O-][Cl+3]([O-])([O-])O ?
inactive

Tell me the recorded outcome of this test for [O-][Cl+3]([O-])([O-])[O-].[O-][Cl+3]([O-])([O-])[O-].c1ccn2c(N3CCOCC3)[n+]3c4ccccc4[n+]4c(N5CCOCC5)n5ccccc5c4c3c2c1 .
inactive

What call does the record list for CCNc1cc2c3c(c1)CCN3CCC2 ?
inactive

For this molecule, state the assay outcome: CC(=O)O[C@H]1CC[C@@]2(C)C(=CC[C@@H]3[C@@H]2CC[C@]2(C)c4c(C)nn(-c5ccccc5)c4C[C@@H]32)C1
inactive

Would you mind telling me which call this test gave OCCSCc1ccccc1 ?
inactive

Assay result, entry O=C(CCc1nnc(S)[nH]1)Nc1cc(Cl)ccc1Cl — outcome?
inactive

# fetch the recorded call for CN(C)CCCn1cnc2cc(Cl)c(Cl)cc21 here
inactive

Name the outcome recorded for COCC1OC(OC2OCC3OC4(OCC(O)(C(C)OC)C5OCOC54)OC3C2OC)C(OC)C(O)C1OC1OC(C)C(OC)C(OC2OC(C)C3OC4(CC(O)C(OC5CC(OC6CC(C)([N+](=O)[O-])C(OC)C(C)O6)C(OC(=O)c6c(C)c(Cl)c(O)c(Cl)c6OC)C(C)O5)C(C)O4)OC3(C)C2O)C1O (stereo not given) in the assay.
inactive

Check the results log: what was the call for c1cc(-c2cn3c(n2)SCC3)ccn1 ?
inactive

Hi, sorry to bother you, what did the test record for CC1=C(O)C(=O)C=C2C1=CC=C1[C@@]2(C)CC[C@@]2(C)[C@@H]3C[C@](C)(C(=O)O)CC[C@]3(C)CC[C@]12C [CELASTROL] ?
active

Called result for Cc1c(C(=O)CC(=O)C(=O)Nc2ccc(Cl)cc2)[n+]([O-])c2ccccc2[n+]1[O-]
inactive

----------
Reported values of GI50 for individual entries
Test system: A549
PROTOCOL SUMMARY: NCI tumour cell line growth inhibition, 48 h
Calls of active or inactive are those of the source. Rule as the data show it: active = GI50 up to about 1.1 µM and inactive = higher.

- COMPOUND: "Cc1c2c(C(N)=O)nccc2c(C)c2c1c1ccccc1n2Cc1ccccc1"
  GI50: "14.8 µM (inactive)"
- COMPOUND: "Cc1nn(C(=O)c2ccc(Cl)cc2)c2c1C(c1ccc(O)cc1)SC(=N)N2 (stereo not drawn)"
  GI50: "> 10 µM (inactive)"

Now for a further compound.
Could you please provide reported GI50 for OCCCCCNc1cc(O)nc(O)n1 ? Thanks!
> 100 µM (inactive)

----------
Each entry below carries its reported GI50.
System: A498
PROTOCOL SUMMARY: NCI tumour cell line growth inhibition, 48 h
Active and inactive are the calls of the source. Rule as the data show it: active = GI50 up to about 1.1 µM and inactive = higher.

- COMPOUND: "NC(=O)NCCSC1CCCCC1O (stereo not drawn)"
  GI50: "> 100 µM (inactive)"

Give the value of GI50 reported for the following: CN(C)CCCn1cnc2cc(Cl)c(Cl)cc21
> 100 µM (inactive)

Give GI50 for the following compound: Cc1c2c(C(N)=O)nccc2c(C)c2c1c1ccccc1n2Cc1ccccc1
21 µM (inactive)

Return value of GI50 for input Nc1ncnc2c1ncn2CCCCC(=O)O , no commentary.
> 100 µM (inactive)

In one line, give reported GI50 of the entry COc1ccc(-n2c(=O)n(C)c(=O)n2-c2ccc(OC)cc2)cc1 .
> 100 µM (inactive)

Hello, please tell me recorded GI50 for this one: C=CCN1C(=O)/C(=C/c2ccc(OC)cc2)N=C1SC/C=C/C
23.9 µM (inactive)

For CCc1nc(N)nc(N)c1-c1ccc(N2CCNCC2)c([N+](=O)[O-])c1 , write its GI50.
39.7 µM (inactive)

Query GI50 for COC1CCC(O)C(/C=C/[N+](=O)[O-])C1 (stereo not drawn)
3.99 µM (inactive)

----------
System: HCC 2998
PROTOCOL SUMMARY: NCI tumour cell line growth inhibition, 48 h
The source made the active and inactive calls. No stated cut-off is given here; in the data, active = GI50 up to about 1.1 µM and inactive = higher.
Listing of entries alongside the reported GI50.

Jot down GI50 (HCC 2998) of C=C(CO[Si](C)(C)C(C)(C)C)C(C)=O .
26.1 µM (inactive)

Give the observed GI50 of CC(=O)N1c2ccccc2C(C)(C)OC1C(Cl)(Cl)Cl (centres undefined) for HCC 2998.
23.2 µM (inactive)

Tell me its GI50 on HCC 2998: C[C@@H]1CC[C@@H]2[C@@H](C1)O[C@@H]([C@@H](C)OCc1ccccc1)SC2(C)C
17.9 µM (inactive)

Provide the reported GI50 (system: HCC 2998) for CSc1c(C)[n+]([O-])c2cc(Cl)c(Cl)cc2[n+]1[O-]
18.8 µM (inactive)

Tell me GI50 of C=C(C(=O)O[C@H]1C(=O)C2=C(C)CCC3C(=C)C(=O)O[C@@H]3C2[C@]1(C)O)C1CC[C@]2(C)CCCC(=C)[C@H]2C1 (some centres undefined) when tested on HCC 2998.
1.91 µM (inactive)

With HCC 2998 as the test system, provide measured GI50 for this compound: COC(=O)C12OCC34C(CC5C(C)=C(O)C(=O)CC5(C)C3C(O)C1O)OC(=O)C(OC(=O)C=C(C)C)C24 (centres undefined)
453 µM (inactive)

Write down measured GI50 (HCC 2998) for this compound. C=C(CCOC)CCC1CCCCC(CN(C)C)C1=O (centres undefined)
> 100 µM (inactive)

Identify measured GI50 obtained with HCC 2998 for CCC1C(=O)OCc2c1cc1n(c2=O)Cc2ccccc2-1 (centres undefined) .
> 100 µM (inactive)

Enter recorded GI50 with HCC 2998 for Cc1c2c(cc3c1C(=O)C(=O)C1=C3OC[C@@H]1C)C(C)(C)CCC2 here.
20.4 µM (inactive)

----------
System: COLO 205
PROTOCOL SUMMARY: NCI tumour cell line growth inhibition, 48 h
Activity calls are given as the source filed them. No stated cut-off is given here; in the data, active = GI50 up to about 1.1 µM and inactive = higher.
RECORDED ENDPOINT: GI50

- COMPOUND: "CCC(C)C1NC(=O)CNC(=O)C2Cc3c([nH]c4cc(O)ccc34)[S+]([O-])CC(NC(=O)CNC1=O)C(=O)NC(CC(=O)O)C(=O)N1CC(O)CC1C(=O)NC(C(C)C(O)CO)C(=O)N2 (stereo not drawn)"
  TARGET ENTITY: "COLO 205"
  GI50: "1.41 µM (inactive)"
- COMPOUND: "C/C(O)=C1\\CC2CN3CCc4c([nH]c5ccccc45)C3CC2CC1=O (stereo not drawn)"
  TARGET ENTITY: "COLO 205"
  GI50: "> 100 µM (inactive)"

Identify measured GI50 corresponding to c1cc(-c2cn3c(n2)SCC3)ccn1
> 57.8 µM (inactive)

----------
Tested on: K562
PROTOCOL SUMMARY: NCI tumour cell line growth inhibition, 48 h
The source made the active and inactive calls. No stated cut-off is given here; in the data, active = GI50 up to about 1.1 µM and inactive = higher.
RECORDED ENDPOINT: GI50

Example entries begin here.
- COMPOUND: "CC(=O)OC12c3ccccc3C(c3ccccc31)C1C(=O)N(Nc3ccccc3)C(=O)C12 (configuration not stated)"
  RESULT: "> 100 µM (inactive)"
- COMPOUND: "O=C(NC(=O)c1cc2cc(Br)cc(Br)c2oc1=O)Oc1ccccc1"
  RESULT: "> 100 µM (inactive)"
- COMPOUND: "COc1ccc(/C=C(\\NC(=O)c2ccccc2)C(=O)NN(C)c2ccnc3cc(Cl)ccc23)cc1OC"
  RESULT: "18.9 µM (inactive)"
- COMPOUND: "O=[N+]([O-])c1cccc2c1[nH]c1c(-c3ccccc3)nccc12"
  RESULT: "1.99 µM (inactive)"
- COMPOUND: "COc1ccc(C2C3=C(CCCC3=O)N(c3ccccc3)C3=C2C(=O)CCC3)cc1"
  RESULT: "> 100 µM (inactive)"

State measured GI50 of the compound C/C(O)=C1\CC2CN3CCc4c([nH]c5ccccc45)C3CC2CC1=O (configuration not stated) with K562.
28.5 µM (inactive)

Give the observed GI50 of Oc1nc2c(c(-c3ccc(Br)cc3)n1)COC/C2=C\c1ccc(Br)cc1 for K562.
> 50 µM (inactive)
